# credit: paper PMC9598561

Assay: Cytotoxicity on murine macrophages, MTT assay
Format: cell-based
Settings: mouse, J774A.1 macrophage cell line, J774A.1 macrophages, CC50 ± SEM
Assignment: determine reported CC50 at 24 h for the given compounds.
Answer with a number only, understood to be in µM.

If you can, please state the reported CC50 at 24 h value of COc1ccc(C(=O)/C=C/c2c(Cl)cccc2Cl)c2c(OC)cccc12 .
127

Entry COc1ccc(C(=O)/C=C/c2ccc(Cl)cc2Cl)c2c(OC)cccc12 please
561

Thanks! And COc1ccc(C(=O)/C=C/c2ccc([N+](=O)[O-])cc2)c2c(OC)cccc12 ?
373

Now try COc1ccc(C(=O)/C=C/c2ccc(Cl)c(Cl)c2)c2c(OC)cccc12 .
194

Try this compound next: C[C@@H]1[C@H](O)[C@@H](C)/C=C/C=C/C=C/C=C/C=C/C=C/C=C/[C@H](O[C@@H]2O[C@H](C)[C@@H](O)[C@H](N)[C@@H]2O)C[C@@H]2O[C@](O)(C[C@@H](O)C[C@@H](O)[C@H](O)CC[C@@H](O)C[C@@H](O)CC(=O)O[C@H]1C)C[C@H](O)[C@H]2C(=O)O [AmB, Amphotericin B, reference compound]
49.7

Can you handle COc1ccc(C(=O)/C=C/c2ccc(Br)cc2)c2c(OC)cccc12 next?
434
